system: mice (tail-flick); experiment: Tail-flick test in mice (quantal protection); format: in vivo, Male Charles River mice (Swiss Strain); settings: Mus musculus, sc, 0.5 h, 30 min pretreatment, read-out: ANALGESIA M. TAIL-FLICK (QUANTAL) ED50
Structures can show the parent of a compound that is named as a salt.
Please respond with reported log10(ED50) for every item in the list.
Plainly stated, the numbers are log10 of ED50 given in mg/kg.

Kindly state the measured log10(ED50) obtained for CC1(C)CCCN(C(=O)Cc2ccc3c(c2)CCCC3)C1CN1CCCC1 (stereo not shown) [Example 12, hydrochloride] with mice (tail-flick).
0.08

Lab note: need log10(ED50) for CC1CCN(C(=O)Cc2ccc(Cl)c(Cl)c2)C(CN2CCCC2)C1 (single isomer, unassigned; diastereoisomer a) on mice (tail-flick), anyone have it?
-0.69

Find log10(ED50) (mice (tail-flick)) for the entry CC1(C)CCN(C(=O)Cc2ccc(C(F)(F)F)cc2)C(CN2CCCC2)C1 (stereo not shown) [Example 15, hydrochloride]
0.26

Give the reported log10(ED50) for CC1CCCC(CN2CCCC2)N1C(=O)Cc1ccc(Cl)c(Cl)c1 (single isomer, unassigned; diastereoisomer a) (system: mice (tail-flick)).
-0.87

Quick check: log10(ED50) on mice (tail-flick), item CC1(C)CCCN(C(=O)Cc2ccc(Cl)c(Cl)c2)C1CN1CCCC1 (stereo not shown) [Example 9, hydrochloride] ?
-0.87

# get_value(readout= log10(ED50), system= mice (tail-flick)) for O=C(Cc1ccc(Cl)c(Cl)c1)N1CCC[C@@H](O)[C@@H]1CN1CCCC1 (relative stereo)
-0.08

Identify the measured log10(ED50) of CC1(C)CCC(CN2CCCC2)N(C(=O)Cc2ccc(Cl)c(Cl)c2)C1 (stereo not shown) [Example 11, hydrochloride] for mice (tail-flick).
0.06

Give mice (tail-flick) log10(ED50) for CC1(C)CCCN(C(=O)Cc2ccc(C(F)(F)F)cc2)C1CN1CCCC1 (stereo not shown) [Example 10, hydrochloride]
-0.94

Requested read-out log10(ED50), target or system mice (tail-flick), entry CC1CCC(CN2CCCC2)N(C(=O)Cc2ccc(Cl)c(Cl)c2)C1 (single isomer, unassigned)
-0.13

Request body: readout log10(ED50), system mice (tail-flick), query CC1(C)CCN(C(=O)Cc2ccc(Cl)c(Cl)c2)C(CN2CCCC2)C1 (stereo not shown) [Example 14, hydrochloride] . Return the value.
-0.08

###

test system: mice (tail-flick); experiment: Duration of action, M. tail-flick (graded), % activity at MTFQ ED50; format: in vivo, Male Charles River mice (Swiss Strain); conditions: mouse, sc, at MTFQ ED50, 30'
Structures can show the parent of a compound that is named as a salt.
Given measured DURATION OF ACTION M. TAIL-FLICK (GRADED) % ACTIVITY AT MTFQ ED50, 30', output met if it is greater than or equal to 70% and not met if not.

Decide: DURATION OF ACTION M. TAIL-FLICK (GRADED) % ACTIVITY AT MTFQ ED50, 30' of CC1CCCC(CN2CCCC2)N1C(=O)Cc1ccc(Cl)c(Cl)c1 (single isomer, unassigned; diastereoisomer a) [Example 6] >= 70%?
met

Confirm if DURATION OF ACTION M. TAIL-FLICK (GRADED) % ACTIVITY AT MTFQ ED50, 30' reported for the compound CC1CCCC(CN2CCCC2)N1C(=O)Cc1ccc(Cl)c(Cl)c1 (single isomer, unassigned; diastereoisomer a) [Example 5] is 70% or above.
met

Has CC1(C)CCN(C(=O)Cc2ccc(C(F)(F)F)cc2)C(CN2CCCC2)C1 (stereo not drawn) [Example 15, hydrochloride] a recorded DURATION OF ACTION M. TAIL-FLICK (GRADED) % ACTIVITY AT MTFQ ED50, 30' greater than or equal to 70%?
not met

Check if DURATION OF ACTION M. TAIL-FLICK (GRADED) % ACTIVITY AT MTFQ ED50, 30' >= 70% (inclusive). Item: CC1(C)CCC(CN2CCCC2)N(C(=O)Cc2ccc(Cl)c(Cl)c2)C1 (stereo not drawn) [Example 11, hydrochloride]
not met

Identify whether the reported DURATION OF ACTION M. TAIL-FLICK (GRADED) % ACTIVITY AT MTFQ ED50, 30' of the following compound is 70% or greater: CC1CCN(C(=O)Cc2ccc(Cl)c(Cl)c2)C(CN2CCCC2)C1 (single isomer, unassigned; diastereoisomer a)
met

Exam item: decide whether the reported DURATION OF ACTION M. TAIL-FLICK (GRADED) % ACTIVITY AT MTFQ ED50, 30' for CC1(C)CCCN(C(=O)Cc2ccc3c(c2)CCCC3)C1CN1CCCC1 (stereo not drawn) [Example 12, hydrochloride] is at least 70%.
not met

# bool: DURATION OF ACTION M. TAIL-FLICK (GRADED) % ACTIVITY AT MTFQ ED50, 30' of CC1CCC(CN2CCCC2)N(C(=O)Cc2ccc(Cl)c(Cl)c2)C1 (single isomer, unassigned) >= 70%
met

Hi, just wondering whether CC1(C)CCCN(C(=O)Cc2ccc(C(F)(F)F)cc2)C1CN1CCCC1 (stereo not drawn) [Example 10, hydrochloride] shows DURATION OF ACTION M. TAIL-FLICK (GRADED) % ACTIVITY AT MTFQ ED50, 30' of 70% or higher.
not met

Does the compound CC1CCCN(C(=O)Cc2ccc(Cl)c(Cl)c2)C1CN1CCCC1 (single isomer, unassigned) [Example 2] have recorded DURATION OF ACTION M. TAIL-FLICK (GRADED) % ACTIVITY AT MTFQ ED50, 30' that is 70% or more?
not met

# check: DURATION OF ACTION M. TAIL-FLICK (GRADED) % ACTIVITY AT MTFQ ED50, 30' of CC1CCCN(C(=O)Cc2ccc(Cl)c(Cl)c2)C1CN1CCCC1 (single isomer, unassigned) [Example 1] is greater than or equal to 70%
met

API: above_or_equal(metric=DURATION OF ACTION M. TAIL-FLICK (GRADED) % ACTIVITY AT MTFQ ED50, 30', cutoff=70%) for item CC1(C)CCCN(C(=O)Cc2ccc(Cl)c(Cl)c2)C1CN1CCCC1 (stereo not drawn) [Example 9, hydrochloride]
met
